Test system: Staphylococcus aureus
assay.explanation: Antibacterial activity against Staphylococcus aureus ATCC 6538 assessed as growth inhibition after 18 hrs by agar dilution method
Type: functional
measurement.setup: ATCC 6538, 18 h
parameter: MIC (µg/mL)

Example entries begin here.
CCn1cc(C(=O)O)c(=O)c2cc(F)c(N3CCN(Cc4oc(CCl)cc(=O)c4O)CC3)cc21; 1.56
CCn1cc(C(=O)O)c(=O)c2cc(F)c(N3CCN(Cc4oc(CO)cc(=O)c4O)C(C)C3)c(F)c21 (racemic); 3.12
CCn1cc(C(=O)O)c(=O)c2cc(F)c(N3CCNCC3)cc21 [NORFLOXACIN]; 0.39
CCn1cc(C(=O)O)c(=O)c2cc(F)c(N3CCN(Cc4oc(CO)cc(=O)c4O)CC3)cc21; 3.12

[1] O=C(O)c1cn(C2CC2)c2cc(N3CCN(Cc4oc(CO)cc(=O)c4O)CC3)c(F)cc2c1=O
[2] COc1c(N2CCN(Cc3oc(CCl)cc(=O)c3O)C(C)C2)c(F)cc2c(=O)c(C(=O)O)cn(C3CC3)c12 (centres undefined)
[3] CCn1cc(C(=O)O)c(=O)c2cc(F)c(N3CCN(Cc4oc(CO)cc(=O)c4O)CC3)nc21
Enquiry: Order the 3 compounds from highest to lowest MIC. Hello, could you send the labels back in the order asked? Thank you.
Return: 3, 1, 2
(3: 6.25 µg/mL, 1: 1.56 µg/mL, 2: 0.39 µg/mL)

[1] COc1c(N2CCN(Cc3oc(CO)cc(=O)c3O)C(C)C2)c(F)cc2c(=O)c(C(=O)O)cn(C3CC3)c12 (centres undefined)
[2] O=C(O)c1cn(C2CC2)c2cc(N3CCN(Cc4oc(CCl)cc(=O)c4O)CC3)c(F)cc2c1=O
Enquiry: When their MIC values are compared, which is larger, 1 or 2 ? Answer = label.
Return: 1
